Test system: NCI/ADR-RES ovarian
Test Protocol: NCI-60 one-dose screen, 48 h
Test Conditions: 10 µM unless noted
About 83,000 compounds went through this panel and 20% of them were active in at least one assay; those are over-represented in the sample as a whole. Calls of active or inactive are those of the source. Rule for the calls: active = growth percent below 10; inactive = the rest.
Respond only with the outcome that fits, drawn from 1 (active), -1 (inactive)

>  <Molecule>
C=C1c2c(C)nn(-c3ccc(NC(C)=O)cc3)c2N(C)C23CC1C1(C)c4c(C)nn(-c5ccc(NC(C)=O)cc5)c4N(C)C(C)(CC12)C3 (centres undefined)

>  <Assay System>
NCI/ADR-RES ovarian

>  <Group>
-1

$$$$

Query: recorded result category for CCCCOC(=O)c1ccc(NC(=O)C(C)N2CCOCC2)cc1 (centres undefined) in this test
-1

Query: recorded result category for `Nc1c(C(=O)c2ccccc2)nnc2ncnn12` in this test
-1

Query: recorded result category for CN1C[C@@H](c2ccc(Cl)cc2)[C@]2(NC(=S)N(c3ccc(F)c(Cl)c3)C2=O)[C@@]12C(=O)NC1C=CC(Cl)=C[C@H]12 (some centres undefined) in this test
-1
